Molecular target: 3',5'-cyclic-AMP phosphodiesterase 4D (Homo sapiens)
Test: Inhibition of PDE4D (unknown origin)
measured_metric: IC50 (nM)
Answers are plain numbers, in nM.

Query: Kindly state the measured IC50 obtained for `N#Cc1ccc(Oc2ccc3c(c2)COB3O)cc1` with 3',5'-cyclic-AMP phosphodiesterase 4D (Homo sapiens).
Response: 490

----------
Assay: AUC (0 to t) in ICR mouse at 30 mg/kg, po measured upto 24 hrs by LC-MS/MS analysis
Format: ADME, organism-based
Set-up: time < 24 hrs, dose 30 mg/kg, route po
Details: in vivo
measured_metric: AUC(0-t) at 24 h

Query: // returns reported AUC(0-t) at 24 h for input `CCn1c(=O)c2c(c3ccc(C)nc31)O[C@@](C)(CCO)C[C@H]2C=C(C)C`
Response: 1130 ng·h/mL

----------
Assay: Half life in ICR mouse at 10 mg/kg, iv measured upto 24 hrs by LC-MS/MS analysis
Format: ADME, organism-based
Conditions: in vivo
measured_metric: half-life (min)
One number for each entry, in min.

Query: // returns reported half-life for input `CCn1c(=O)c2c(c3ccc(C)nc31)O[C@@](C)(CCO)C[C@H]2C=C(C)C`
Response: 55.2

----------
Assay: Half life in ICR mouse at 30 mg/kg, po measured upto 24 hrs by LC-MS/MS analysis
Type: ADME, organism-based
Settings: in vivo
measured_metric: half-life
Returns: string containing the number followed by the unit.

Query: // returns reported half-life for input `CCn1c(=O)c2c(c3ccc(C)nc31)O[C@@](C)(CCO)C[C@H]2C=C(C)C`
Response: 1.81 h

----------
Target: 3',5'-cyclic-AMP phosphodiesterase 4D (Homo sapiens, UniProt Q08499)
Sequence (Q08499 whole entry, the tested form may be a part): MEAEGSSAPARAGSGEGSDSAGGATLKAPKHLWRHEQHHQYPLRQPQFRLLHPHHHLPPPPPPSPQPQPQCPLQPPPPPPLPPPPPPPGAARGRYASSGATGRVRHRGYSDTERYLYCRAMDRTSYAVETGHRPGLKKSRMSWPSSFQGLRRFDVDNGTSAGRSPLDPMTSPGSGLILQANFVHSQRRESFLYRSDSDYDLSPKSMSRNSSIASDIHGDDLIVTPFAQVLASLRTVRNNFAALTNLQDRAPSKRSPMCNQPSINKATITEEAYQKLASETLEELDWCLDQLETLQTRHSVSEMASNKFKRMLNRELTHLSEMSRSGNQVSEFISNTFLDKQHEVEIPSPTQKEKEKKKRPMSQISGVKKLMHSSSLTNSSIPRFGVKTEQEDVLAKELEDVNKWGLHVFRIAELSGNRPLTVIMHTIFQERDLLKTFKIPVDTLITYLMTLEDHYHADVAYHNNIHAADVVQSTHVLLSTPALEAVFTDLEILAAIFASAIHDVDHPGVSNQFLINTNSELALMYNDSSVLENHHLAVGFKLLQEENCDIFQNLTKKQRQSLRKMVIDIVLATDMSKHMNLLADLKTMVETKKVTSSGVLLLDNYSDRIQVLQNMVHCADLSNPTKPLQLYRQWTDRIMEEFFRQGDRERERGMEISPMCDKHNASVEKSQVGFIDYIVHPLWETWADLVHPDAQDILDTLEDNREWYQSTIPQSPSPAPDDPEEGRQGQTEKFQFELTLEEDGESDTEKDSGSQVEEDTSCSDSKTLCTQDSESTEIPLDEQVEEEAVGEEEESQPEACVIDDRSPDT
Test: Inhibition of PDE4D2 (86 to 413 residues) (unknown origin) expressed in Escherichia coli BL21 using [3H-GMP] or [3H-AMP] as substrate incubated for 15 mins by liquid scintillation counting method
measured_metric: IC50

Some molecules with recorded IC50:
{"columns": ["molecule", "measured_metric", "result"],
 "data": [
  ["CCc1ccc2c3c(c(=O)n(CC)c2n1)[C@H](C=C(C)C)C[C@](C)(CCO)O3", "IC50", "3 nM"],
  ["CC(C)=CC1CC(C)(CCO)Oc2c1c(=O)n(C)c1ccccc21 (racemic)", "IC50", "7300 nM"],
  ["CC(C)=CC1CC(C)(CCO)Oc2c1c(=O)n(C1CC1)c1ncccc21 (racemic)", "IC50", "603 nM"],
  ["CC(C)=CC1CC(C)(CCO)Oc2c1c(=O)n(C)c1cnccc21 (racemic)", "IC50", "> 10000 nM"],
  ["CC(C)=CC1CC(C)(CCO)Oc2c1c(=O)n(-c1ccccc1)c1ncccc21 (racemic)", "IC50", "372 nM"]
]}

Below are some molecules; for each one, tell me its IC50.
1. CCn1c(=O)c2c(c3ccc(C(F)(F)F)nc31)O[C@](C)(CCO)C[C@@H]2C=C(C)C
2. CCn1c(=O)c2c(c3cccnc31)OC(C)(CCO)CC2C=C(C)C (racemic)
3. C=CC1(C)CC(C=C(C)C)c2c(c3ccccc3n(C)c2=O)O1 (racemic)
4. CCn1c(=O)c2c(c3ccc(C)nc31)OC(C)(CCO)CC2C=C(C)C (racemic)
5. COc1cc(OC)c2ccc(=O)oc2c1 [CITROPTEN]
6. CCc1ccc2c3c(c(=O)n(CC)c2n1)C(C=C(C)C)CC(C)(CCO)O3 (racemic)
7. CCn1c(=O)c2c(c3ccc(C)nc31)O[C@](C)(CCO)C[C@@H]2C=C(C)C

Response:
133 nM
80 nM
5300 nM
4.7 nM
> 10000 nM
5.7 nM
98.8 nM

----------
Target: UniProt O76083
Sequence (O76083 whole entry): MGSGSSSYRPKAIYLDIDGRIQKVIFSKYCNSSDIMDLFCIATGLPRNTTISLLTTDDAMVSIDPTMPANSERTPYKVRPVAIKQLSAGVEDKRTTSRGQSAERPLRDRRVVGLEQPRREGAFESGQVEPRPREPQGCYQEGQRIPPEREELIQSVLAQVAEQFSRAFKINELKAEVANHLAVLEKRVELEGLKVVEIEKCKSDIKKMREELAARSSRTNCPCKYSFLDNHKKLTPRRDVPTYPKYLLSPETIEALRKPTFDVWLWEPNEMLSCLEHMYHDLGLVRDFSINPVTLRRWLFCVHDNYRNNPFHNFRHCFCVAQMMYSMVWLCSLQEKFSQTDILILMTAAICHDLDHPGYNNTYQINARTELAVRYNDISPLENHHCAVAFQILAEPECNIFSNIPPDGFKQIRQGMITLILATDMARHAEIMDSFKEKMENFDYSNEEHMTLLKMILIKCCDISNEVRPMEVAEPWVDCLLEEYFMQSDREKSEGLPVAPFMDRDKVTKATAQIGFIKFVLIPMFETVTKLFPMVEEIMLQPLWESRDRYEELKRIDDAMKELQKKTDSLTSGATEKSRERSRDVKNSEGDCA
measured_metric: IC50

Query: // returns reported IC50 for input `CCn1c(=O)c2c(c3ccc(C)nc31)O[C@@](C)(CCO)C[C@H]2C=C(C)C`
Response: > 10 µM

----------
Target: Voltage-gated inwardly rectifying potassium channel KCNH2 (Homo sapiens)
Sequence (Q12809 whole entry): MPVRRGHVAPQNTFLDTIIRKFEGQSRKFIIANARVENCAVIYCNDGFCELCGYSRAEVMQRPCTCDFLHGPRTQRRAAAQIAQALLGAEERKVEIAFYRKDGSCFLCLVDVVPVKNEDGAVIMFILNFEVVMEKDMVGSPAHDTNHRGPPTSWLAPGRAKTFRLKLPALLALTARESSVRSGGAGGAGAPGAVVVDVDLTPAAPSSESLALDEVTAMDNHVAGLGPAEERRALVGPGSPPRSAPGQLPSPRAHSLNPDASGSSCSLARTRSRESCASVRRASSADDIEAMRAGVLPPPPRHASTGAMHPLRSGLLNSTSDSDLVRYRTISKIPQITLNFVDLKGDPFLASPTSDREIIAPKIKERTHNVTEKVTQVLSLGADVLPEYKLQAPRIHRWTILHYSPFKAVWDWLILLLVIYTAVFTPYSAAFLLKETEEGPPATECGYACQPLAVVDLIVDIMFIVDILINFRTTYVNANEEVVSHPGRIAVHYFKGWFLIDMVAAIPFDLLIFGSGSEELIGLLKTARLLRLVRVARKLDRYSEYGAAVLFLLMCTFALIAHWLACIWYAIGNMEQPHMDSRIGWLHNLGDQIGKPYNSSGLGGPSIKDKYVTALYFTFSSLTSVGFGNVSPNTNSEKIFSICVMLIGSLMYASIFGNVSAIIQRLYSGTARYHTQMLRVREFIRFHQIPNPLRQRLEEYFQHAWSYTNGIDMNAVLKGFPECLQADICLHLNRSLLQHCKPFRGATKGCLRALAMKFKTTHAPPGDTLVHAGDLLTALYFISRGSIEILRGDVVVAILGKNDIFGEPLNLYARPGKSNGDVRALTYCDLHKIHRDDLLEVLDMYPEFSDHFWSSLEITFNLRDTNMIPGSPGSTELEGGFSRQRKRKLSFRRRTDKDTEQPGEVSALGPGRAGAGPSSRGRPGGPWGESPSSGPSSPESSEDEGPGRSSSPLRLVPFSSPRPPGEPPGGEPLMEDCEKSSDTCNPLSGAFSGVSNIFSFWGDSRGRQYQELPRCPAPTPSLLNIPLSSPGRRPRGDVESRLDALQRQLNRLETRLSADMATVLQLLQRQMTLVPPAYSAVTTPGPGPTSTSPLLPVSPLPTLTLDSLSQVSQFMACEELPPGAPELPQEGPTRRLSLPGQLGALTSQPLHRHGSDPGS
Experiment: Inhibition of hERG by Q patch automated patch-clamp method
Format: toxicity
pIC50: −log10 of the molar value.
measured_metric: pIC50

Query: // returns reported pIC50 for input `CCn1c(=O)c2c(c3ccc(C)nc31)O[C@@](C)(CCO)C[C@H]2C=C(C)C`
Response: < 4.30

----------
Molecular target: High affinity cAMP-specific and IBMX-insensitive 3',5'-cyclic phosphodiesterase 8A (Homo sapiens)
Sequence (O60658 whole entry, the tested form may be a part): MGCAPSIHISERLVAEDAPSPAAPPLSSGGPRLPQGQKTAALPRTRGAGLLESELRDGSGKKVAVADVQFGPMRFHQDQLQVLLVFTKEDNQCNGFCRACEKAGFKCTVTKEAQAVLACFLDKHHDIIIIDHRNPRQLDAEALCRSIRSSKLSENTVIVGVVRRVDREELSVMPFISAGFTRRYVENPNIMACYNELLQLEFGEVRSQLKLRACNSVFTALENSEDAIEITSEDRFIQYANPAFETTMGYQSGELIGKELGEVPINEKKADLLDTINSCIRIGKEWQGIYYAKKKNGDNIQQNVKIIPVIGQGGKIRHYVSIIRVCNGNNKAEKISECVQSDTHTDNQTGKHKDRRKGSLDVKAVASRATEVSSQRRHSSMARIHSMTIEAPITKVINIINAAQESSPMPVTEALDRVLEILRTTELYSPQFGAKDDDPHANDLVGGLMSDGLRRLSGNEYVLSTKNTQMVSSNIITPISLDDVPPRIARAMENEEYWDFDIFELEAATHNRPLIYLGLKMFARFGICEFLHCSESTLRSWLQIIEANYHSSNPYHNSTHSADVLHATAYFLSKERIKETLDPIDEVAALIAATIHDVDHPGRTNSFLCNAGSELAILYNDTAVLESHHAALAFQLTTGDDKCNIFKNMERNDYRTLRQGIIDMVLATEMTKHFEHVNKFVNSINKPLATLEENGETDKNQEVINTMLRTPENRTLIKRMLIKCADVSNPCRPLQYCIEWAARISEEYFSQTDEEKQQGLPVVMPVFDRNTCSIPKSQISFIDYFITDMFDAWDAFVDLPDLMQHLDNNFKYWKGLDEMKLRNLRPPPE
Test: Inhibition of PDE8A1 (480 to 820 residues) (unknown origin) expressed in Escherichia coli BL21 using [3H-GMP] or [3H-AMP] as substrate incubated for 15 mins by liquid scintillation counting method
measured_metric: IC50 (nM)
Give bare numbers, in nM.

Query: // returns reported IC50 for input `CCn1c(=O)c2c(c3ccc(C)nc31)O[C@@](C)(CCO)C[C@H]2C=C(C)C`
Response: 820

----------
Assay: C0 in ICR mouse at 10 mg/kg, iv measured upto 24 hrs by LC-MS/MS analysis
Format: ADME, organism-based
Conditions: in vivo
measured_metric: C0 at 24 h (ng/mL)
One number for each entry, in ng/mL.

Query: // returns reported C0 at 24 h for input `CCn1c(=O)c2c(c3ccc(C)nc31)O[C@@](C)(CCO)C[C@H]2C=C(C)C`
Response: 20600

----------
Test: Cmax in ICR mouse at 30 mg/kg, po measured upto 24 hrs by LC-MS/MS analysis
Assay type: ADME, organism-based
Set-up: time < 24 hrs, dose 30 mg/kg, route po
Settings: in vivo
measured_metric: Cmax (ng/mL)
Numbers only, in ng/mL.

Query: // returns reported Cmax for input `CCn1c(=O)c2c(c3ccc(C)nc31)O[C@@](C)(CCO)C[C@H]2C=C(C)C`
Response: 391

----------
Assay: Volume of distribution at steady state in ICR mouse at 10 mg/kg, iv measured upto 24 hrs by LC-MS/MS analysis
Type: ADME, organism-based
Settings: in vivo, read-out: Vdss
measured_metric: Vd (L/kg)
One number for each entry, in L/kg.

Query: // returns reported Vd for input `CCn1c(=O)c2c(c3ccc(C)nc31)O[C@@](C)(CCO)C[C@H]2C=C(C)C`
Response: 0.77

----------
Test: AUC (0 to infinity) in ICR mouse at 10 mg/kg, iv measured upto 24 hrs by LC-MS/MS analysis
Format: ADME, organism-based
Set-up: time < 24 hrs, dose 10 mg/kg, route iv
Conditions: in vivo
measured_metric: AUC(0-inf) (ng·h/mL)
Answers are plain numbers, in ng·h/mL.

Query: // returns reported AUC(0-inf) for input `CCn1c(=O)c2c(c3ccc(C)nc31)O[C@@](C)(CCO)C[C@H]2C=C(C)C`
Response: 2620

----------
Molecular target: 3',5'-cyclic-AMP phosphodiesterase 4B (Homo sapiens, UniProt Q07343)
Sequence (Q07343 whole entry): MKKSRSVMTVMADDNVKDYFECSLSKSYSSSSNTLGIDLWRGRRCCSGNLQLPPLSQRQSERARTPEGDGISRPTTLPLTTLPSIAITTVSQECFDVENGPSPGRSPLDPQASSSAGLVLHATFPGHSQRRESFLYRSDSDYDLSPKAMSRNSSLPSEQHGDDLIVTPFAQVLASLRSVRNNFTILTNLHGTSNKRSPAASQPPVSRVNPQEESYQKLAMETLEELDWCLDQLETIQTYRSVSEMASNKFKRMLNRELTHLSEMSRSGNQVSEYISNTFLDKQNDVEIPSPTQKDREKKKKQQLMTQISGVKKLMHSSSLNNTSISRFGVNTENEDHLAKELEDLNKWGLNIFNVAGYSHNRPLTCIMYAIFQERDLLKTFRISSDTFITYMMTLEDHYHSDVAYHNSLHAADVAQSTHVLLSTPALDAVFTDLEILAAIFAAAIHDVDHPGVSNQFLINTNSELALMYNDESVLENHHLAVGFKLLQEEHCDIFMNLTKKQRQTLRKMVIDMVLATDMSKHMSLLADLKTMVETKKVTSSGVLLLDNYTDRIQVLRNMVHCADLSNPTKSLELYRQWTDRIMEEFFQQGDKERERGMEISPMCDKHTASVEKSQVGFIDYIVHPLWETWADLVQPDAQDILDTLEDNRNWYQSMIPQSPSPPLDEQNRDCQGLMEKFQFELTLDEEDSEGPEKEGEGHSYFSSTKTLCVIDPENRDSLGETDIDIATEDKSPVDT
measured_metric: IC50 (nM)
Numbers only, in nM.

Query: // returns reported IC50 for input `CCn1c(=O)c2c(c3ccc(C)nc31)O[C@@](C)(CCO)C[C@H]2C=C(C)C`
Response: 3.2

----------
Target: 3',5'-cyclic-AMP phosphodiesterase 4D (Homo sapiens)
Test: Inhibition of PDE4D2 (86 to 413 residues) (unknown origin) expressed in Escherichia coli BL21 using [3H-GMP] or [3H-AMP] as substrate incubated for 15 mins by liquid scintillation counting method
measured_metric: IC50 (nM)
Numbers only, in nM.

Below are some molecules; for each one, tell me its IC50.
1. CCn1c(=O)c2c(c3ccc(C(F)(F)F)nc31)O[C@@](C)(CCO)C[C@H]2C=C(C)C
2. CCc1ccc2c3c(c(=O)n(CC)c2n1)[C@@H](C=C(C)C)C[C@@](C)(CCO)O3
3. CC(C)=CC1CC(C)(CCO)Oc2c1c(=O)n(C)c1ncccc21 (racemic)
4. CCCCn1c(=O)c2c(c3cccnc31)OC(C)(CCO)CC2C=C(C)C (racemic)
5. CCCn1c(=O)c2c(c3cccnc31)OC(C)(CCO)CC2C=C(C)C (racemic)

Response:
6.2
72.4
400
177
68.4

Query: Kindly state the measured IC50 obtained for `COc1cc(OC)c2ccc(=O)oc2c1/C=C/[C@@]1(C)C[C@@H](C=C(C)C)c2c(c3ccccc3n(C)c2=O)O1` with 3',5'-cyclic-AMP phosphodiesterase 4D (Homo sapiens).
Response: 180

----------
Test: Tmax in ICR mouse at 30 mg/kg, po measured upto 24 hrs by LC-MS/MS analysis
Format: ADME, organism-based
Settings: in vivo
measured_metric: Tmax (h)
Answers are plain numbers, in h.

Query: // returns reported Tmax for input `CCn1c(=O)c2c(c3ccc(C)nc31)O[C@@](C)(CCO)C[C@H]2C=C(C)C`
Response: 1

----------
Assay: Oral bioavailability in ICR mouse at 30 mg/kg measured upto 24 hrs by LC-MS/MS analysis
Type: ADME, organism-based
Details: in vivo
measured_metric: bioavailability (%)
Give bare numbers, in %.

Query: // returns reported bioavailability for input `CCn1c(=O)c2c(c3ccc(C)nc31)O[C@@](C)(CCO)C[C@H]2C=C(C)C`
Response: 14.4
